The measurements presented in this section are drawn from paper PMC8403975.

target: ACE2:SARS-CoV-2 Spike (RBD) (Homo sapiens); experiment: biochemical; type: binding
Sequence (Q9BYF1 18-740): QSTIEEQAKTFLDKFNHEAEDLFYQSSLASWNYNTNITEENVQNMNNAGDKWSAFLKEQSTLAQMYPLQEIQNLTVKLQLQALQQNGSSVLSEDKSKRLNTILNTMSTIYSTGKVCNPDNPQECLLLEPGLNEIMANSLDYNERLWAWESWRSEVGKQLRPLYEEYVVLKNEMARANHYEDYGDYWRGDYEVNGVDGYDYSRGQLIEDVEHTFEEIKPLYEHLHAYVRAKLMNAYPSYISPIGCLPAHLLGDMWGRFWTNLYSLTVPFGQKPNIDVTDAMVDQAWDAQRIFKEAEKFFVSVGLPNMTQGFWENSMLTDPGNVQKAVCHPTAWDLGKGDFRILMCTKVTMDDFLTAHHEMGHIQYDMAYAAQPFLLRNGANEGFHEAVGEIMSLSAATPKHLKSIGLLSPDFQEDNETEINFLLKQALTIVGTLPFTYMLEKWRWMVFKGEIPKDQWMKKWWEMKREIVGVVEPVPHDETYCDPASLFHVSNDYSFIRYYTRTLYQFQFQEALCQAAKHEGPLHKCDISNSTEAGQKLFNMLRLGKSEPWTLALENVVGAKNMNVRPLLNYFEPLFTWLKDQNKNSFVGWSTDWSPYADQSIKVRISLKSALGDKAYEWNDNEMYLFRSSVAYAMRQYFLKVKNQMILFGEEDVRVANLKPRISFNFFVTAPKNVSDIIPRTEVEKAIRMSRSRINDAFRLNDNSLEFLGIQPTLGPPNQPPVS
pIC50: −log10 of the molar value.
readout.type: pIC50

>>> df
                                    compound  readout_type  numeric_readout
 0  CC1=C(C(=O)Cl)C(c2ccccc2Cl)NC(=S)N1 (stereo not drawn)         pIC50             7.63
 1  CC1=C(C(=O)Nc2ccc(C)cc2)C(c2ccccc2C#N)NC(=S)N1 (stereo not drawn)         pIC50             7.97
 2  CC1=C(C(=O)Nc2ccccc2)C(c2ccccc2Br)NC(=S)N1 (stereo not drawn)         pIC50             7.86
 3  CCOC(=O)C1=C(C)NC(=S)NC1c1ccccc1C#N (stereo not drawn)         pIC50             8.07
 4  CC1=C(C(=O)Nc2ccc(C)cc2)C(c2ccccc2Cl)NC(=S)N1 (stereo not drawn)         pIC50             7.72
 5  CC1=C(C(=O)O)C(c2ccccc2C#N)NC(=S)N1 (stereo not drawn)         pIC50             8.01
 6  CCOC(=O)C1=C(C)NC(=S)NC1c1ccccc1Br (stereo not drawn)         pIC50             7.64
 7  CC1=C(C(=O)Cl)C(c2ccccc2Br)NC(=S)N1 (stereo not drawn)         pIC50             7.78
 8  CC1=C(C(=O)Nc2ccccc2)C(c2ccccc2Cl)NC(=S)N1 (stereo not drawn)         pIC50             7.97
 9  CC1=C(C(=O)Nc2ccc(F)cc2)C(c2ccccc2C#N)NC(=S)N1 (stereo not drawn)         pIC50             7.70
10  CC1=C(C(=O)Cl)C(c2ccccc2C#N)NC(=S)N1 (stereo not drawn)         pIC50             7.76
11  CC1=C(C(=O)Nc2ccccc2)C(c2ccccc2C#N)NC(=S)N1 (stereo not drawn)         pIC50             7.94
